Tested on: HTT mRNA
method notes: Splicing RT-qPCR assay, HTT canonical (CJ) and alternative (AJ) junction mRNA
Assay type: cell-based
measurement context: Homo sapiens; Table 7; AC50 = 50% response in AJ mRNA increase; RT-qPCR, A673 or K562 cells, 24 hours treatment
measure name: EC50

Task: Find the recorded EC50 belonging to "CCNC1CCN(c2cc3sc(-c4cc(F)c5nn(C)cc5c4)nc3s2)CC1" and report it.
Result: 100 to 1000 nM

---

Tested on: Target C
method notes: HiBiT protein abundance assay, Target C (K562 HiBiT knock-in cells)
Format: cell-based, human
measurement context: 24 hours treatment
pIC50: −log10 of the molar value.
measure name: pIC50

In the examples that follow, each entry is paired with its recorded pIC50.
Cc1cn2cc(-n3cc4cc(C5CCNCC5)sc4n3)nc2c(C)n1 = 5.00 to 6.00
Cn1cc2cc(-c3nc4cn(C5CCNCC5)nc4s3)c(O)cc2n1 = 5.00 to 6.00

Task: Please give the measured pIC50 for this molecule: "Cc1cn2nc(-n3cc4cc(C5CCNCC5)sc4n3)cc2c(C)n1"
Result: 5.00 to 6.00

Task: What pIC50 value was documented for this molecule, "COc1c(-c2cc3cn(C4CCNCC4)nc3s2)cc2cn(C)nc2c1F" ?
Result: 6.00 to 7.00

Task: GET /values?readout=pIC50&item= "Cc1nc2cc(O)c(-c3nc4cn(C5CCNCC5)nc4s3)cc2o1"
Result: 6.00 to 7.00

Task: # query: pIC50 of entry "Cc1cc(-c2nc3cn(C4CCNCC4)nc3s2)cc2cn(C)nc12"
Result: > 7.00

Task: I'd like to know its pIC50. The molecule in question is "Cc1cn2nc(-n3cc4cc(C5CCNCC5)sc4n3)cc(C)c2n1"
Result: 5.00 to 6.00

Task: Item under review: "Cc1cn2cc(-n3cc4cc(C5CCNCC5)sc4n3)cc(F)c2n1" . Reported pIC50?
Result: > 7.00

Task: Which pIC50 is listed for "Cc1nc2c(F)cc(-n3cc4cc(C5CCNCC5)sc4n3)cc2o1" ?
Result: > 7.00

Task: Dear colleague, I am looking for the recorded pIC50 of the following molecule: "CCN1CCC(n2cc3cc(-c4cc(F)c5nn(C)cc5c4)sc3n2)CC1"
Result: 6.00 to 7.00

Task: Form field: reported pIC50 of "Cc1cn2cc(-c3nc4cn(C5CCNCC5)nc4s3)nc(C)c2n1"
Result: < 5.00

---

Test system: HTT mRNA
method notes: Splicing RT-qPCR assay, HTT canonical (CJ) and alternative (AJ) junction mRNA
Assay type: cell-based
measurement context: Homo sapiens; Table 7; AC50 = 50% response in AJ mRNA increase; RT-qPCR, A673 or K562 cells, 24 hours treatment
pEC50: −log10 of the molar value. Where a name gives a salt, the structure may show the parent alone.
measure name: pEC50

Below, each entry is followed by its recorded pEC50 result.
CN(C)C1CCN(c2cc3sc(-c4cc(F)c5nn(C)cc5c4)nc3s2)CC1 = 6.00 to 7.00
Cn1cc2cc(-c3nc4sc([C@H]5CCNC[C@H]5F)cc4s3)cc(F)c2n1 = 5.00 to 6.00
Cc1cc(-c2cc3cn(C4CCNCC4)nc3s2)cc2cn(C)nc12 = > 7.00
Cc1cn2cc(-n3cc4sc(C5CCNCC5)cc4n3)ncc2n1 = 5.00 to 6.00
Cc1cn2nc(-n3cc4sc(C5CCNCC5)cc4n3)nc2c(C)n1 = 5.00 to 6.00
c1n[nH]cc1-n1cc2sc(C3CCNCC3)cc2n1 = < 5.00

Task: I have this molecule here, Cc1cn2cc(-c3nc4sc(C5CCNCC5)cc4s3)cc(F)c2n1 [Compound 130, hydrochloride] , and I need its recorded pEC50.
Result: > 7.00

Task: Recorded pEC50 of "CN1CCC(c2cc3sc(-c4cc(F)c5nn(C)cc5c4)nc3s2)CC1" , please.
Result: > 7.00

Task: If you can, please state the reported pEC50 value of "Cc1cn2cc(-n3cc4sc(C5CCNCC5)cc4n3)cc(C)c2n1" .
Result: 5.00 to 6.00

---

System: HTT mRNA
method notes: Splicing RT-qPCR assay, HTT canonical (CJ) and alternative (AJ) junction mRNA
Type: cell-based
measurement context: Homo sapiens; Table 7; AC50 = 50% response in AJ mRNA increase; RT-qPCR, A673 or K562 cells, 24 hours treatment
measure name: EC50

Example cases with answers are listed next.
CN(c1cc2nn(-c3ccc(-c4cn[nH]c4)cc3O)cc2s1)[C@@H]1C[C@H]2CC[C@@H](C1)N2 [Compound 148] = 1 to 10 µM
Cn1cc2cc(-c3cc4cn(C5CCOCC5)nc4s3)cc(F)c2n1 [Compound 161] = > 10 µM
Cn1cc2cc(-c3nc4sc(N5CCN6CCCC6C5)cc4s3)cc(F)c2n1 (centres unmarked) [Compound 144] = 0.1 to 1 µM
Cc1cn2cc(-c3cc4cn(C5CCNCC5)nc4s3)cc(Cl)c2n1 [Compound 226] = < 0.1 µM

Moving on to another molecule below.
Task: Look up EC50: Cn1cc2c(F)cc(-c3nc4sc(C5CCNCC5)cc4s3)cc2n1 [Compound 131]
Result: 1 to 10 µM

---

In this section we review reported IC50 values for a set of compounds.
Tested on: MYB mRNA
method notes: Splicing RT-qPCR assay, MYB canonical (CJ) and alternative (AJ) junction mRNA
Assay type: cell-based
measurement context: Homo sapiens; Table 7; IC50 = 50% response in CJ mRNA decrease; RT-qPCR, A673 or K562 cells, 24 hours treatment; read-out: MYB CJ
Protocol: Compounds described herein were used to modulate RNA transcript abundance in cells. The expression of a target mRNA was measured by detecting the formation of an exon-exon junction in the canonical transcript (CJ). A compound mediated exon-inclusion event was detected by observing an increase in formation of a new junction with an alternative exon (AJ). Real-time qPCR assays were used to detect these splicing switches and interrogate the potency of various compounds towards different target genes. […]

Cn1cc2cc(-c3cn4nc(C5CCNCC5)nc4s3)cc(F)c2n1 [Compound 102] = 100 to 1000 nM
Cc1cn2nc(-c3cc4cn(C5CCNCC5)nc4s3)cc2c(C)n1 [Compound 222] = 1000 to 10000 nM
Cc1cn2cc(-n3cc4sc(C5CCNCC5)cc4n3)nc2c(C)n1 [Compound 181] = > 10000 nM
Cc1cn2nc(-n3cc4sc(N5CC6(CN(C)C6)C5)cc4n3)cc(C)c2n1 [Compound 188] = 1000 to 10000 nM
Cn1cc2cc(-c3cc4cn(C5CCNCC5)nc4s3)c(C#N)cc2n1 [Compound 211] = 1000 to 10000 nM
Cn1cc2cc(-n3cc4cc(C5CCNCC5)sc4n3)cc(F)c2n1 [Compound 104] = 100 to 1000 nM

Task: Quick check: IC50 on MYB mRNA, item Cc1cn2cc(-c3cc4cn(C5CCNCC5)nc4s3)cc(C)c2n1 [Compound 216] ?
Result: 100 to 1000 nM

Task: API: value(readout= IC50, system= MYB mRNA, query= C[C@@H]1C[C@@H](c2cc3sc(-c4cc(F)c5nn(C)cc5c4)nc3s2)CCN1 (single isomer, unassigned) [Compound 193] )
Result: < 100 nM

---

System: SMN2 mRNA
method notes: Splicing RT-qPCR gene panel, SMN2 canonical junction (CJ) mRNA
Type: cell-based
measurement context: Homo sapiens; Table 8; larger gene panel, decrease in CJ mRNA levels
pIC50: −log10 of the molar value.
measure name: pIC50

Worked set:
Cc1cn2cc(-c3cc4cn(C5CCNCC5)nc4s3)cc(F)c2n1 = > 7.00
Cn1cc2cc(-n3cc4sc(C5CCNCC5)cc4n3)c(O)cc2n1 = 5.00 to 6.00
Cn1cc2cc(-c3cc4cn(C5CCNCC5)nc4s3)ccc2n1 = > 7.00
Cn1cc2c(F)cc(-c3nc4sc(C5CCNCC5)cc4s3)cc2n1 = 5.00 to 6.00

// next item, pIC50 requested
Task: // returns reported pIC50 for input "Cc1cn2nc(-c3nc4sc(C5CCOCC5)cc4s3)cc(C)c2n1"
Result: 5.00 to 6.00

---

EC50 values for the compounds below.
Tested on: HTT mRNA
method notes: Splicing RT-qPCR assay, HTT canonical (CJ) and alternative (AJ) junction mRNA
Assay type: cell-based
measurement context: Homo sapiens; Table 7; AC50 = 50% response in AJ mRNA increase; RT-qPCR, A673 or K562 cells, 24 hours treatment

The cases that follow already have their EC50 on record.
Cc1cn2cc(-c3cc4cn(C5CCNCC5)nc4s3)nc(C)c2n1 = 0.1 to 1 µM
Cn1cc2cc(-c3cc4cn(C5CNC5)nc4s3)cc(F)c2n1 = 1 to 10 µM

Task: What value of EC50 has been recorded for this entry: "CN(c1cc2sc(-c3ccc(-c4cn[nH]c4)cc3O)nc2s1)[C@@H]1C[C@H]2CC[C@@H](C1)N2"
Result: > 10 µM
